- assay-notes: Apparent permeability across basolateral to apical side in MDCK cells
- Format: ADME, cell-based, Canis lupus familiaris
- cond: dog
result-type: Papp B→A (×10⁻⁶ cm/s)
Return type: number; implicit unit ×10⁻⁶ cm/s.

Can you share its Papp B→A? I mean this compound: Cc1cc2cc(NC(=O)c3cccnc3N)ccc2[nH]1
46

###

- system-tested: Transitional endoplasmic reticulum ATPase (Homo sapiens)
- Sequence (P55072 whole entry, the tested form may be a part): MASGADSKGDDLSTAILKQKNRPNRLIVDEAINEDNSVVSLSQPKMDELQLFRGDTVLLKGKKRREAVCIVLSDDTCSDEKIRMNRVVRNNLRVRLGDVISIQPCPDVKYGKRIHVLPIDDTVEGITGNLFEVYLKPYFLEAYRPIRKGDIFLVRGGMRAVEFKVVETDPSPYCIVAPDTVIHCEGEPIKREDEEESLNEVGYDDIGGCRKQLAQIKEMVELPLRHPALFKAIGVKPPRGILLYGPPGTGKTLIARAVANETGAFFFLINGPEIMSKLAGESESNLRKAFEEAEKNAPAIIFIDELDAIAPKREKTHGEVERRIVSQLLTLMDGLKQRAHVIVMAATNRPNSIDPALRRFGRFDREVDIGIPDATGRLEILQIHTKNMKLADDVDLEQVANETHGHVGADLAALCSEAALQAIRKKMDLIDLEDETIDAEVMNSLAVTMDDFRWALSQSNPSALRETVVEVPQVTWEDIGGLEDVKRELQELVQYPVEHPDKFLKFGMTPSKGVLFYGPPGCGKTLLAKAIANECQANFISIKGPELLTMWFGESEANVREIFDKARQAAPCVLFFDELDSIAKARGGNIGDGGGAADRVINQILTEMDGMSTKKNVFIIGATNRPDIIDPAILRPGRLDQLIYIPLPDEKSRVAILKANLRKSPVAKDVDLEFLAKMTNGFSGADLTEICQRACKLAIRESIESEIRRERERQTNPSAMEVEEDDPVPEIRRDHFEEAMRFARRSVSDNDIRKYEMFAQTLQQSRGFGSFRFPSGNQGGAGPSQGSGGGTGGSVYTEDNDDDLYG
- assay-notes: Inhibition of recombinant human full length Avi-tagged p97 (1 to 806 residues) expressed in Escherichia coli Rosetta 2(DE3) using 100 uM ATP as substrate incubated for 90 mins by ADP-glo assay
Listed next: entries and their corresponding IC50.
Value expressed in µM; do not type the unit.

Quick one: IC50 of CCc1cc2cc(NC(=O)c3nccnc3N)ccc2[nH]1 ?
13

Can you look up the measured IC50 of Cc1cc2cc(NC(=O)c3nccnc3N)ccc2[nH]1 for me?
3.5

May I ask what IC50 has been recorded for Cc1cc2cc(NC(=O)c3cccnc3N)ccc2[nH]1 ?
0.5
